# target system: PAI-1 (Homo sapiens)
# Sequence (P05121 24-402): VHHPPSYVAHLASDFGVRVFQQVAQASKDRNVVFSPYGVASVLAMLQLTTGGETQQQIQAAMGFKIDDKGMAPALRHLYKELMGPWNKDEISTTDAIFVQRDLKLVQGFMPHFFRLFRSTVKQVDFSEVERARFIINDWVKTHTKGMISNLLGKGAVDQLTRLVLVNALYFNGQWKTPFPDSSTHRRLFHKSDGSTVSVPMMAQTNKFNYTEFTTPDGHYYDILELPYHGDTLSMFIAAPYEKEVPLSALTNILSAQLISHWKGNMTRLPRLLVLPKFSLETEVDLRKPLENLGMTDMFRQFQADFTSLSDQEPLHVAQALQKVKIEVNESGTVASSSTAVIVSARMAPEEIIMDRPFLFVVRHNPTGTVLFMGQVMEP
# procedure text: biochemical
# Assay type: biochemical
# details: 100 μm
Counter-ions that a name gives are not always drawn.
Could you please report measured % Inhibition for the items listed next?
Numbers only, in %.

Use the examples below as a reference point.
[
  {
    "compound": "CN(C)CC[S+]([O-])c1ccc(/C=c2\\[nH]c(=O)/c(=C/c3ccccc3)[nH]c2=O)cc1 (stereo not shown) [Compound 5141.HCl]",
    "assay result": 34
  },
  {
    "compound": "CN(C)CCSc1ccc(/C=c2\\[nH]c(=O)/c(=C/c3ccsc3)[nH]c2=O)s1",
    "assay result": 41
  },
  {
    "compound": "CN(C)CCSc1ccc(/C=c2\\[nH]c(=O)/c(=C/c3ccsc3)[nH]c2=O)cc1 [Compound 5133.HCl]",
    "assay result": 24
  },
  {
    "compound": "CN(C)CCSc1ccc(/C=c2\\[nH]c(=O)/c(=C/c3ccc4ccccc4c3)[nH]c2=O)s1 [Compound 5286.HCl]",
    "assay result": 98
  },
  {
    "compound": "CN(C)CCSc1ccc(/C=c2\\[nH]c(=O)/c(=C/c3ccoc3)[nH]c2=O)cc1 [Compound 5129.HCl]",
    "assay result": 50
  },
  {
    "compound": "CN(C)CCSc1ccc(/C=c2\\[nH]c(=O)/c(=C/c3ccc4c(c3)Cc3ccccc3-4)[nH]c2=O)s1",
    "assay result": 107
  },
  {
    "compound": "CN(C)CCSc1ccc(/C=c2\\[nH]c(=O)/c(=C/c3ccc4ccccc4n3)[nH]c2=O)s1 [Compound 5308]",
    "assay result": 80
  },
  {
    "compound": "CN(C)CCSc1ccc(/C=c2\\[nH]c(=O)/c(=C/c3ccccc3)[nH]c2=O)s1 [Compound 5131.HCl]",
    "assay result": 56
  }
]

For each of the items listed, what is its % Inhibition?
1. CN(C)CCSc1ccc(/C=c2\[nH]c(=O)/c(=C/c3ccc4ccccc4n3)[nH]c2=O)s1 [Compound 5308.HCl]
2. CC(=O)Nc1ccc(/C=c2\[nH]c(=O)/c(=C/c3ccc(SCCN(C)C)s3)[nH]c2=O)cc1 [Compound 5300]

A.
[93, 70]

----------
# target system: PAI-1 (Homo sapiens)
# procedure text: biochemical
# Format: biochemical
# details: 20 μm
Structures can show the parent of a compound that is named as a salt.
Classify: t when % Inhibition is strictly less than 50%; f when % Inhibition is not.

Take a look at these entries with their results.
[
  {
    "compound": "CN(C)CCSc1ccc(/C=c2\\[nH]c(=O)/c(=C/c3ccccc3)[nH]c2=O)cc1 [Compound 5128.HCl]",
    "label value": "f"
  },
  {
    "compound": "CN(C)CCSc1ccc(/C=c2\\[nH]c(=O)/c(=C/c3ccc4ccccc4n3)[nH]c2=O)s1 [Compound 5308]",
    "label value": "f"
  }
]

Q. Record Cc1cccc(/C=c2\[nH]c(=O)/c(=C/c3ccc(SCCN(C)C)cc3)[nH]c2=O)c1 [Compound 5439] : is its % Inhibition strictly below 50%?
A. t

Q. Another compound to look at: CN(C)CCSc1ccc(/C=c2\[nH]c(=O)/c(=C/CC(C)(C)C)[nH]c2=O)s1 [Compound 5502]
A. t

Q. Another compound to look at: COc1ccc(/C=c2\[nH]c(=O)/c(=C/c3ccc(SCCN(C)C)s3)[nH]c2=O)cc1 [Compound 5464]
A. f

Q. Another compound to look at: COc1ccc(/C=c2\[nH]c(=O)/c(=C/c3ccc(SCCN(C)C)s3)[nH]c2=O)cc1 [Compound 5464.HCl]
A. f

Q. Another compound to look at: CN(C)CCSc1ccc(/C=c2\[nH]c(=O)/c(=C/c3cccc(OCc4ccccc4)c3)[nH]c2=O)s1 [Compound 5487.HCl]
A. f

Q. Another compound to look at: COc1ccc2ccccc2c1/C=c1\[nH]c(=O)/c(=C/c2ccc(SCCN(C)C)s2)[nH]c1=O [Compound 5499.HCl]
A. f

Q. Another compound to look at: CN(C)CCSc1ccc(/C=c2\[nH]c(=O)/c(=C/c3ccc(OCc4ccccc4)cc3)[nH]c2=O)cc1 [Compound 5481]
A. f
